The origin of these recorded values is patent US8003660B2.

tested-system: M1 muscarinic receptor (Homo sapiens)
Sequence (P11229 whole entry): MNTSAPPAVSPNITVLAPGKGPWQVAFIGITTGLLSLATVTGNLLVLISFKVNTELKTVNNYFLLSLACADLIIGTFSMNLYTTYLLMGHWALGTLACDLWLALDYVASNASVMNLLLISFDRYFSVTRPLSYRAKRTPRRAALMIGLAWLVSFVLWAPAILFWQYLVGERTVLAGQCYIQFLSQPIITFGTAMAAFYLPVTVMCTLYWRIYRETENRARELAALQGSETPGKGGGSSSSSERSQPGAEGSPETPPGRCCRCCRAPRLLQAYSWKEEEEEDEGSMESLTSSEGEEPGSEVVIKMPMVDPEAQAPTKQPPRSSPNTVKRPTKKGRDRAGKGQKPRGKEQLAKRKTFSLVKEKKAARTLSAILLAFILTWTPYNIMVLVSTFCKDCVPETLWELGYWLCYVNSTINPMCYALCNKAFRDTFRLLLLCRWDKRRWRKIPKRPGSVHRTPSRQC
measurement-protocol: Functional mobilization of intracellular calcium (FLIPR) in CHO cells expressing M1
measurement-setup: CHO cells expressing M1, FLIPR calcium
metric: EC50

Exercise: Write down the reported EC50 of CCC(=O)N1CCCC(C(=O)N[C@@H]2CCC3(CCN(CCC(C)(C)C)CC3)c3ccccc32)C1 (stereo partly shown) [compound 13] , test system: M1 muscarinic receptor (Homo sapiens).
Solution: > 5000 nM

Exercise: What about this molecule? CC(C)(C)CCN1CCC2(CC[C@H](NC(=O)C3CC3)c3ccccc32)CC1 [compound 158]
Solution: < 2000 nM

Exercise: How about this molecule: CC(=O)N[C@H]1CCC2(CCN(CCC(C)C)CC2)c2ccccc21 [compound 159]
Solution: < 2000 nM

Exercise: Now this one: C[C@@H](C(=O)N[C@H]1CCC2(CCN(CCC(C)(C)C)CC2)c2ccccc21)N1CCCC1=O [compound 137]
Solution: < 2000 nM

Exercise: Again, but for CC(C)(C)CCN1CCC2(CC[C@@H](NC(=O)CC3CCCC3=O)c3ccc(F)cc32)CC1 (stereo partly shown) [compound 17]
Solution: < 2000 nM

Exercise: # iterate: CC(C)(C)CCN1CCC2(CC[C@H](NC(=O)C3CCN(C(=O)c4ccccc4)CC3)c3ccccc32)CC1 [compound 36]
Solution: < 2000 nM

Exercise: Next entry: CN1CC(C(=O)N[C@@H]2CCC3(CCN(CCC(C)(C)C)CC3)c3ccccc32)CC1=O (stereo partly shown) [compound 25]
Solution: > 5000 nM

###

# Emax listing for each entry below
tested-system: M4 muscarinic receptor (Homo sapiens)
Construct: expressed in transfected cells; host or cells: CHO (M4-CHO)
Sequence (P08173 whole entry): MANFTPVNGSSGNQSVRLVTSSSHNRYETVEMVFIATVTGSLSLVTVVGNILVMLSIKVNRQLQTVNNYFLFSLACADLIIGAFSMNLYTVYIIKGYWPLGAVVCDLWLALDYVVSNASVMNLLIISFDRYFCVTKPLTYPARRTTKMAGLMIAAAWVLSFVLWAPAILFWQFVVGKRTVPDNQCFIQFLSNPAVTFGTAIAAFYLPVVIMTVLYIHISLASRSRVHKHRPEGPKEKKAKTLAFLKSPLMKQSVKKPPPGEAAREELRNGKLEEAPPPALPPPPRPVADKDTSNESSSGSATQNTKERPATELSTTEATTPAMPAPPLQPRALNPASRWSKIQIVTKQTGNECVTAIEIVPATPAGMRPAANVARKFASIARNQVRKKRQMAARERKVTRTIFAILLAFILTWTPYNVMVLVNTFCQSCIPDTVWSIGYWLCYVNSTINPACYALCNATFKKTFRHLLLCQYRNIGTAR
measurement-protocol: Functional mobilization of intracellular calcium (FLIPR) in CHO cells expressing M4
Assay type: cell-based
measurement-setup: CHO; 100% efficacy = maximum response obtained with the Carbachol control

Recorded results for 5 compounds are shown here.
COc1cc2c(cc1OC)C1(CCN(C(=O)OC(C)(C)C)CC1)CC2=O : < 25%
CC(C)(C)OC(=O)N1CCC2(CC1)C[C@H](NC(=O)C1CC1)c1ccccc12 : < 25%
CC(C)(C)CCN1CCC2(CC[C@@H](NC(=O)C3CCOCC3)c3ccccc32)CC1 : 25 to 100%
CC(=O)N[C@H]1CC2(CCN(CC(C)CCC=C(C)C)CC2)c2ccccc21 (some centres unmarked) : 25 to 100%
CC(=O)N[C@H]1CC2(CCN(CC(C)(C)C)CC2)c2ccccc21 : 25 to 100%

Exercise: Form field: reported Emax of COC(=O)CCCN1CCC2(CC1)C[C@H](NC(C)=O)c1ccccc12
Solution: 25 to 100%

Exercise: Next up: CC(C)CCN1CCC2(CC1)C[C@H](NC(=O)C1CCCC1)c1ccccc12
Solution: < 25%

Exercise: Then Cn1cncc1C(=O)N[C@H]1CCC2(CCN(CCC(C)(C)C)CC2)c2ccccc21 ?
Solution: 25 to 100%

###

Measured pEC50, listed per entry.
tested-system: M1 muscarinic receptor (Homo sapiens)
measurement-protocol: Functional mobilization of intracellular calcium (FLIPR) in CHO cells expressing M1
measurement-setup: CHO cells expressing M1, FLIPR calcium
Protocol: Functional Mobilization of Intracellular Calcium to Determine Muscarinic Receptor Activity: […] Compounds are prepared at a 2× fold concentration in a 96-well plate (round bottom, Costar Corning cat#3656), by reconstituting the pre-spotted compounds in bath 1 containing 1 mM probenecid. […] In both assay modes, the fluorescence is recorded for 60 sec (excitation wavelength is […] and emission wavelength 540 nm) using the FLIPR 3 instrument. […]
pEC50: −log10 of the molar value.

# annotated cases, reported pEC50 shown
CC(C)CCN1CCC2(CC[C@H](N3CCCC3=O)c3ccccc32)CC1 [compound 90] : 5.30 to 5.70
CC(C)(C)CCN1CCC2(CC[C@H](NC(=O)C3CC3)c3ccc(F)cc32)CC1 [compound 119] : > 5.70
CC(C)(C)CCN1CCC2(CC[C@H](NC(=O)CCN3CCCC3=O)c3ccccc32)CC1 [compound 124] : > 5.70
COCCC(=O)N[C@@H]1CCC2(CCN(CCC(C)(C)C)CC2)c2ccccc21 [compound 105] : 5.30 to 5.70
CC(C)(C)CCN1CCC2(CC[C@H](NC(=O)CN3CCCCCC3=O)c3ccccc32)CC1 [compound 71] : > 5.70
Cc1cc(C(=O)N[C@H]2CCC3(CCN(CCC(C)(C)C)CC3)c3cc(F)ccc32)nn1C [compound 2] : > 5.70
CC(C)(C)CCN1CCC2(CCC(=O)c3ccccc32)CC1 [compound 173] : > 5.70

Now consider the entry below.
Exercise: // fetch M1 muscarinic receptor (Homo sapiens) pEC50 for CN(C(=O)C1CC1)[C@H]1CCC2(CCN(CCC(C)(C)C)CC2)c2ccccc21 [compound 176]
Solution: 5.30 to 5.70

###

tested-system: M3 muscarinic receptor (Homo sapiens)
Construct: expressed in transfected cells; host or cells: CHO (M3-CHO)
Sequence (P20309 whole entry): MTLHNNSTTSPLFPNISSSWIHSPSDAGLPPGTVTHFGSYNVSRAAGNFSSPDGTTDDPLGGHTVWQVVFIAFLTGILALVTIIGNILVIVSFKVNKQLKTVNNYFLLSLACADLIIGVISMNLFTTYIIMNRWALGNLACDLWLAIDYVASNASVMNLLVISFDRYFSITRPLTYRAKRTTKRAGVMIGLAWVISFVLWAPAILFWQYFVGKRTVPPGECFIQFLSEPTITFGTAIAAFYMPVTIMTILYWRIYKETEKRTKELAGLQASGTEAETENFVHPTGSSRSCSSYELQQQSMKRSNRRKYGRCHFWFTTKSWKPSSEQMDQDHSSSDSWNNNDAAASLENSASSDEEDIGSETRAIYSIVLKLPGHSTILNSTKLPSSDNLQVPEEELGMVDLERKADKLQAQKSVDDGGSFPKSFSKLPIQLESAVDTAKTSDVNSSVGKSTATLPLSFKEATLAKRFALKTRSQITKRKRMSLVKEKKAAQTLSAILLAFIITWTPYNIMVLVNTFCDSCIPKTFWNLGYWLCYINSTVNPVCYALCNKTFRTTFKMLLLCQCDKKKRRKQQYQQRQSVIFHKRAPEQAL
measurement-protocol: Functional mobilization of intracellular calcium (FLIPR) in CHO cells expressing M3
Type: cell-based
measurement-setup: CHO; 100% efficacy = maximum response obtained with the Carbachol control
Emax values by entry

Use these answered entries as a reference point.
COC(=O)CCCCCN1CCC2(CC1)C[C@H](NC(C)=O)c1ccccc12 : 25 to 100%
CC(=O)N[C@H]1CCC2(CCN(C(=O)OC(C)(C)C)CC2)c2ccccc21 : < 25%
CCN(C(=O)Cc1ccccn1)[C@H]1CCC2(CCN(CCC(C)(C)C)CC2)c2ccccc21 : < 25%
CC(C)(C)CCN1CCC2(CC1)C[C@H](NC(=O)c1ccoc1)c1ccccc12 : < 25%
C=CCCCN1CCC2(CC1)C[C@H](NC(=O)N1CCCC1)c1ccccc12 : < 25%
CC(C)(C)CN1CCC2(CC1)CC(C(=O)O)c1ccccc12 (stereo not drawn) : < 25%
CC(C)(C)CCN1CCC2(CC[C@H](N3CCCCC3=O)c3ccc(F)cc32)CC1 : < 25%
C#CCNC(=O)CN1CCC2(CC1)C[C@H](NC(C)=O)c1ccccc12 : < 25%
CC(C)CCN1CCC2(CC1)C[C@H](NC(=O)C1CC1)c1ccccc12 : < 25%
CC(=O)N[C@H]1CCC2(CCN(C(C)CC(C)(C)C)CC2)c2ccccc21 (stereo partly drawn) : < 25%

Exercise: What measured Emax is associated with CC(C)CCN1CCC2(CC[C@H](N(C)C(=O)N(C)C)c3ccccc32)CC1 on M3 muscarinic receptor (Homo sapiens)?
Solution: < 25%

Exercise: What about CCn1ccc(C(=O)N[C@H]2CCC3(CCN(CCC(C)(C)C)CC3)c3ccccc32)n1 ?
Solution: < 25%

Exercise: Could you do the same for CC(C)(C)CCN1CCC2(CC[C@@H](NC(=O)[C@H]3CCC(=O)N3)c3ccc(F)cc32)CC1 , please?
Solution: < 25%

Exercise: Another compound to look at: CCOC(=O)N(C)[C@H]1CCC2(CCN(CCC(C)(C)C)CC2)c2ccccc21
Solution: < 25%

Exercise: Subsequent entry: CC(C)(C)CCN1CCC2(CC[C@H](NC(=O)C3CCOCC3)c3ccc(F)cc32)CC1
Solution: < 25%

Exercise: Also CC(C)(C)CCN1CCC2(CC[C@@H](NC(=O)C3CC3)c3ccc(F)cc32)CC1 , if possible.
Solution: < 25%

Exercise: Now the same for CC(C)CCN1CCC2(CC1)C[C@H](NC(=O)N1CCCC1)c1ccccc12
Solution: < 25%

Exercise: Next entry: CC(C)(C)CCN1CCC2(CC[C@H](NC(=O)CCCN3CCCC3=O)c3ccccc32)CC1
Solution: < 25%

###

EC50 values by entry
tested-system: M2 muscarinic receptor (Homo sapiens)
Sequence (P08172 whole entry): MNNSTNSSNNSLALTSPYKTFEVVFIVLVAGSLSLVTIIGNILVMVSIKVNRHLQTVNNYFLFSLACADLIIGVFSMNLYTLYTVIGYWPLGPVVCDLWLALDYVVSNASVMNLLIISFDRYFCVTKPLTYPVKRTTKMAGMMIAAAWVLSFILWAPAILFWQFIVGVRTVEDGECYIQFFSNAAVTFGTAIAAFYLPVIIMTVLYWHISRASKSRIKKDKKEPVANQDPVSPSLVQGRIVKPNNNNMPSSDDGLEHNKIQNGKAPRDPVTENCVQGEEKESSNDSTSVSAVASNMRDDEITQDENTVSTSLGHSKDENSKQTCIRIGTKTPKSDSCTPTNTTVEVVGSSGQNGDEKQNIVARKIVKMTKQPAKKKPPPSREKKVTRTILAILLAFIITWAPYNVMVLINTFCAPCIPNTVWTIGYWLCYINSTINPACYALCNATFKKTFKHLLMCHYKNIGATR
measurement-protocol: Functional mobilization of intracellular calcium (FLIPR) in CHO cells expressing M2
measurement-setup: CHO cells expressing M2, FLIPR calcium

Worked set:
CC(C)(C)CCN1CCC2(CC[C@@H](NC(=O)[C@@H]3CCC(=O)N3)c3ccc(F)cc32)CC1 : 2 to 5 µM
Cn1cnc(C(=O)N[C@H]2CCC3(CCN(CCC(C)(C)C)CC3)c3cc(F)ccc32)c1 : < 2 µM
CC(C)CCN1CCC2(CC[C@H](NS(C)(=O)=O)c3ccccc32)CC1 : > 5 µM

Exercise: What value of EC50 on M2 muscarinic receptor (Homo sapiens) does CC(C)(C)CCN1CCC2(CC[C@@H](NC(=O)CC3CCCC3=O)c3ccc(F)cc32)CC1 (some centres unmarked) have?
Solution: > 5 µM

Exercise: What do you have for CC(=O)N1CCCC1C(=O)N[C@H]1CCC2(CCN(CCC(C)(C)C)CC2)c2ccccc21 (some centres unmarked) ?
Solution: > 5 µM

Exercise: Same question for CC(=O)N[C@@H]1CCC2(CCN(CCC(C)(C)C)CC2)c2ccccc21 please.
Solution: > 5 µM

Exercise: And then CC(=O)N[C@H]1CCC2(CCN(CCC(C)(C)C)CC2)c2cc(F)ccc21 , what is it?
Solution: < 2 µM

Exercise: Another compound to check: CN(C)C(=O)N(C)[C@H]1CCC2(CCN(CCC(C)(C)C)CC2)c2ccccc21
Solution: > 5 µM
